Origin of values: patent US4599362A

I'd appreciate it if you could supply LC50 at 48 h values for the items below.
experiment: Test 8: Fish Toxicity; type: in vivo; settings: carp, water, carps, concentration at which 1/2 of the test fishes were killed, read-out: Fish Toxicity, TLm48

# return recorded LC50 at 48 h for entry CC(C)(COCc1cc(Oc2ccccc2)ccc1Cl)c1ccc(Cl)cc1 [Compound 7]
> 10 µg/mL

# return recorded LC50 at 48 h for entry Cc1cccc(C(C)(C)COCc2ccc(F)c(Oc3ccccc3)c2)c1 [Compound 19]
> 1 µg/mL

# return recorded LC50 at 48 h for entry CC(C)(CSCc1ccc(F)c(Oc2ccccc2)c1)c1ccc(Cl)cc1 [Compound 4]
> 0.5 µg/mL
